# Test system: K4 kissing-loop RNA reporter
# Assay Method Text: apparent KD of K4 kissing-loop reporter; higher = weaker reporter binding
# Condition Notes: Eterna round: R107; input ligand: theophylline 20 uM
Measured Property: apparent KD of K4 kissing-loop reporter

Reference set (2 entries):
UAACUUGCAGUGAUGUUGCAAGAACUGGAUACCAGCAUGGAAACAUGCCCUUGGCAGCCAGAAGGUAUCCUCUUGCAUAGAUACU [Design3]: 220 nM
UGUCAUGGAAACAUGAACGUUGAAAUAAAUCGAGGACCGGUACGGCCGCCACUCGUAUAGCGGUCAGUGAUGUUGACUGUAAUAA [KL-SSTryp-A form2 sub9]: 132 nM

Give measured apparent KD of K4 kissing-loop reporter for every item shown.
1. GCUAUGGUAGGAAGGAGCGCGGACGAAAUUUAUCGAGUGAUGUUCGAAUAAUUAAAUAAAACGCAGGUAGGUCGCCUACUAUAGC [Arginine B K4 26]
2. AAAUAAAUCAGAGGAUAUUCUUCCCACGUCGAAGUACCGUGCUUGAUGGAGUGAUGUUCGAUCAGAGAAGAAGGCUGAUAAAUAA [Same State FMN B GF 19]
3. AUUUUUUUGUCAGGAUAUUAGUGUGCGUUUGGUUUGUUAGUGAUGUUGAUAUUUGGUUUAUGUAUUUAAGAAGGGAUUUAGCGGU [dhbbtemullin]

Result ::
1: 95.5 nM; 2: 621 nM; 3: 582 nM

Query :: # value lookup — system K4 kissing-loop RNA reporter, readout apparent KD of K4 kissing-loop reporter, item UGACAUUGCUCAGAUACCAGACUUGAGGAUCACCCAAGUGCCAAACGUACAAUAAUAAAAGUCCCUUGGCAGCUGAGCAAUGUCU [TheoBX 14]
Result :: 112 nM

====

# Tested on: MS2 coat protein
# Assay Method Text: apparent KD of MS2 coat protein; designed switch direction (-1 OFF switch, 1 ON switch): 1; higher = weaker reporter binding
# Condition Notes: input ligand: microRNA oligo, concentration not stated
Measured Property: apparent KD of MS2 coat protein (nM)
One number for each entry, in nM.

UGUUGUAUUACAGGAUAUCUAUGAUUUUUAUUAAGAGAAGGGUAUUCACAUGAGGAUCACCCAUGUAUAUACGAGGAAGUUGUG [JMF's solution 70] (Eterna round: R96, puzzle: Same State NG 1): 25.6
UUGAUUAGAAAUUAACAUGAGGAUCACCCAUGUAUUGGAUCAGAGGAUAUGCAUGUUUGAUUGUAGCAGAAGGCUGAUUGUGGA [JR_SSNG3_Sub028] (Eterna round: R96, puzzle: Same State NG 3): 29.5
GACCGCGAGGAAGGAUAUGGAGCCUUAUUGGCUCCAGAAGGUCCAUAAAGGACAUGAGGAUCACCCAUGUGGGCUGAAGCGGUC [Fiskers NG1ss - 9] (Eterna round: R96, puzzle: Same State NG 1): 25.8
AUACCGUGCCAAGGAUAUGGUGUAAACACAUGAGGAUCACCCAUGUCAGAGAGUCGAGCGACUAGCUAGAAGGUGGUAUGGGAA [Eternabot solution 9] (Eterna round: R96, puzzle: Same State NG 2): 149
CGGGUGAUCGUAGGAUAUCUAGGAUAUGAACGAGGAUCACCCGAGCAGCAUCAGCGCAUCAGAGGAGAGAAGGACGAUGAUGCG [pwkr ssNG2 2F5 2FMN.19] (Eterna round: R96, puzzle: Same State NG 2): 21.7
UAGAUUCACGUAGGAUAUCGACCUACAUGAGGAUCACCCAUGUUUUUGAAUAGAUUUUUUAGUUACGAGAAGGACGUUAUGUAU [JR_SSNG2_Sub063] (Eterna round: R96, puzzle: Same State NG 2): 210
UUAAUUUACUGAGGAUAUCGUGUCGACUGAGGUGACAUGAGGAUCACCCAUGUGAGAAGUGGUAUCGAGAAGGCAGUAUUCAUA [JR_SSNG2_Sub022] (Eterna round: R96, puzzle: Same State NG 2): 306
UUAACAUGAGGAUCACCCAUGUAUACGUAGUUUGCAUUUUGACAGGAUAUUGAAUAUCUAUAUAGCAAGAAGGGUCGUUAGUCU [JR_SSNG3_Sub007] (Eterna round: R96, puzzle: Same State NG 3): 49.1

Read the next record carefully.
Query :: Reported apparent KD of MS2 coat protein, sequence AAACAUGAGCGAGGAUAUGCAGAGGAUCACCCUGUAGAAGGCGCAUGUAAAACAACAUGAGGAUCACCCAUGUCAUGUACAUGA (Eterna round: R96, puzzle: Same State NG 1) : ____
Result :: 15.3

====

# System: K4 kissing-loop RNA reporter
# Assay Method Text: apparent KD of K4 kissing-loop reporter; higher = weaker reporter binding
# Condition Notes: Eterna round: R107; input ligand: FMN 200 uM
Measured Property: apparent KD of K4 kissing-loop reporter (nM)
Answers are plain numbers, in nM.

Look over these answered cases.
GCAGUGAUGUUGCGGAUGUACAGUGGCGUGCGAGGACCGGUACGGCCGCCACUCGUACAGAACAAGCUAAUACAUCGAUAGGUGA [whbob_SS_Tryp_A_m1]: 493
UAACGGCAACAAGGAUAUCCCAGUGAUGUUGGGAGAUAUUGACUAAGGAGACAUGAUAGGCAUAAUGGAGAAGGUGUGUUGGGAG [theeternabot_exclusion_KL_FMN_B_19]: 159

Query :: # returns recorded apparent KD of K4 kissing-loop reporter (system: K4 kissing-loop RNA reporter) for UGGAGUUGACGAAAAGUCAACUCCUGAGAUACCAGUGACGAAAGUCACCCUUGGCAGCUCACUGCCAGUGAUGUUGGAAAAUAAA [#OpenEnded 1];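 also: bound reporter read as fluorescence of individual clusters on recovered sequencing chips by microscopy, with normalized cluster intensities fitted with a binding model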
Result :: 527

====

# System: MS2 coat protein
# Assay Method Text: apparent KD of MS2 coat protein; designed switch direction (-1 OFF switch, 1 ON switch): 1; higher = weaker reporter binding
# Condition Notes: input ligand: microRNA oligo, concentration not stated
apparent KD of MS2 coat protein vs 70 nM: at or above is label 1, below is label 0.

GGAGCCGGCACUGAGGAUAUUCAUAUUAAAACAUGAGGAUCACCCAUGUAGGCCAGAAGGCCUUGGGAGAAGGCAGGUCGGCUCG [Arinin] (Eterna round: R96, puzzle: Same State 2): label 1

Okay, now this sequence:
Query :: Kindly determine if apparent KD of MS2 coat protein recorded for GAGUGGCAGUAAGGAUAUAUAAUGAUAAUCACAGUAGAAGGUACUGACAUGAGGAUCACCCAUGUAGGACUAAACCAGAGAGAG [Parity 43 - Jieux - Same State NG 1] (Eterna round: R96, puzzle: Same State NG 1) is above or exactly 70 nM.
Result :: label 0

====

# Test system: MS2 coat protein
# Assay Method Text: apparent KD of MS2 coat protein; designed switch direction (-1 OFF switch, 1 ON switch): 1; higher = weaker reporter binding
# Condition Notes: Eterna round: R95; input ligand: none
Please mark MET if the recorded apparent KD of MS2 coat protein is equal to or greater than 100 nM, and NOT MET if it falls below.

These recorded examples may help you get a feel for the data.
AACAAUCUAUCUGAGGAUAUCAUGAAUAAAACAUGAGGAUCACCCAUGUGCAGGAAAACUGCAUAUGAGAAGGCAGAUAGAUUGU [Mat - Same State 2 - Mod - D11] (puzzle: Same State 2): MET
AUAAGUUCGAUGCUCGUCUCUCCGUACAAACAUGAGGAUCACCCAUGUGGUCAGGAAGUAGCCCGACCAGUAUGGCC [Leedqu] (puzzle: Sensor for hsa-mir-208a): NOT MET
UAGAAACAUGAGGAUCACCCAUGUGGGUUAAACACAGGAUAUCACACCAAACGAAAGGCGUGAGAAGGGUGACCGU [Xeonreais] (puzzle: Same State 1): NOT MET

Query :: Could you tell me if the measured apparent KD of MS2 coat protein of UUUAGUUGCGGGCAGGAUAUGUAUUAAAAUACAUGAGGAUCACCCAUGUGAGACCGAAAAGGUCUACAGAAGGGCCAAUCGCGAC [Laonerce - 20] (puzzle: Same State 2) reaches 100 nM or more?
Result :: NOT MET

Query :: Try the sequence UUUAUACAUGAGGAUCACCCAUGUCAACGUAGUCGAGGAUAUGGGCAGCCGUGAGGCGUACUAGAAGGCGAAGAGG [JL-ss1-3.08 ViennaUCT mod] (puzzle: Same State 1)
Result :: MET

====

# Test system: MS2 coat protein
# Assay Method Text: apparent KD of MS2 coat protein; higher = weaker reporter binding
# Condition Notes: Eterna round: R107; input ligand: tryptophan 2.4 mM
Measured Property: apparent KD of MS2 coat protein (nM)
Numbers only, in nM.

These recorded examples may help you get a feel for the data.
GACAUUAACUGAAGGAGCGAGGUAGAACGGGAUGAGCAUACAUGAGGAUCACCCAUGUGGCCUCAGGUAGGUCGCAGAUGAGAUU [Exclusion Arginine B GF25]: 179
UGGUACAUGGCGGCCGCCACUUCACGUAAAAUAAAAACGUGAGGAUCACCCACGUAAUAAGUUGGGAGGACCGGGUCAUGUACCU: 123
ACGUCCCGUUUACUCGUGGGUUAGGUCGAUACCAGUAUUCAAACUUACCCUUGGCAGCGACAUGAGGAUCACCCAUGUGCGAAGA [XTheo A #22]: 17.5
AACAUGAGGAUCACCCAUGUAUGUUCCGAAGGAGCGCCACAUGAGGCAGGUAGGUCGCGGGUACAUGAGGAUCACCCAUGUGUCA [Exclusion Arginine A 3]: 174

List reported apparent KD of MS2 coat protein for each of these sequences:
1. GGACUAACCAGAAGGAGCGACACGCAGAAACUGCAAUUUCCUCCGCACGAGGAUCACCCGUGUCAGGUAGGUCGCUGGUUAGUCG
2. GCUAGGUCAUCGGCCGCCACUAACGACGGCUCCAACAUGAGGAUCACCCAUGUGCCACAUGCGCAUAGGACCGGGAUGACCUAGC [SSTB NP+V+V2 #4]

Result ::
1. 21.1
2. 14.6
